Biological target: T1, PUF4 RNA-binding domain (Saccharomyces cerevisiae, UniProt P25339 537-888)
T1 sequence: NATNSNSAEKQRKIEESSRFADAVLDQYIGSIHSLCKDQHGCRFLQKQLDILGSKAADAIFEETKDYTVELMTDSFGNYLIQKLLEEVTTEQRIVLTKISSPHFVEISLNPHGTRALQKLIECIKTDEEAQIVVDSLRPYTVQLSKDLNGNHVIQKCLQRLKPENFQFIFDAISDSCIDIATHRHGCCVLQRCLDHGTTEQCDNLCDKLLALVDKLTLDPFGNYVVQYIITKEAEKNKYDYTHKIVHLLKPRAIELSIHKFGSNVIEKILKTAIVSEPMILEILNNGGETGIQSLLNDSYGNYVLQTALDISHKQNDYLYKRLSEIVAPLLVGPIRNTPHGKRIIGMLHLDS
Experiment: Mg; RNA-MaP; 20 mM Na-HEPES pH 7.4, 30 mM KOAc, 0.75 mM MgCl2, 0.1% Tween-20, 5% glycerol, 0.1 mg/mL BSA, 2 mM DTT; 25 C; 0.0125-409.6 nM protein
Settings: tags: N-His6-TEV cleaved; C-SNAP kept, Cy3B-labelled; label: tethered on chip by stalled RNA polymerase
ASSAY_ENDPOINT: pKd
Answers are plain numbers, as −log10 of the molar value.

>>> measurement("Ic_S2_P4E.1_K4.1_C4.1_H4.1_A4.1_F4.1_[T8A]_T4.1 (ssRNA) RNA: UUUGAUUAAUAUGAUAUCGUUCUUUCUUGUAUAUAAUUCUUUCUCGAUAUCAUAUUAAUCUUU")
8.69
>>> measurement("Ic_S4_P5E.1_K5.1_C5.1_H5.1_A5.1_[T5A]_[A7C]_F5.1_[T8A]_[T9G]_[A10C]_T5.1 (ssRNA) RNA: UUUGACAACUGAUCGUUCUUUCUUGUAAUCAGCUUCUUUCUCGAUCAGUUGUCUUU")
5.71
>>> measurement("UCUCUUUGCCUAUAUUAUCUCUU (ssRNA) [Ie_S1_P4E.1_K4.1_C4.1_H4.1_[+2CC]_A4.1_F4.1_T4.1]")
5.86
>>> measurement("Ic_S2_P4E.1_K4.1_C4.1_H4.1_A4.1_[A6C]_[T7G]_F4.1_[A9G]_T4.1 (ssRNA) RNA: UUUGAUUAAUAUGAUAUCGUUCUUUCUUGUAUCGUGUUCUUUCUCGAUAUCAUAUUAAUCUUU")
7.23
>>> measurement("Ie_S4_P4E.1_K4.1_C4.1_H4.1_A4.1_[+5TTC]_F4.1_T4.1 (ssRNA) RNA: UUUGACAACUGAUCGUUCUUUCUUGUAUUUCAUUAUUCUUUCUCGAUCAGUUGUCUUU")
7.50
>>> measurement("UCUCUUUGUAAUUUUCUCUU (ssRNA) [Ic_S1_P3E.1_K3.1_C3.1_H3.1_A3.1_[T5A]_[A6T]_F3.1_[A8T]_T3.1]")
7.47

Hello, I would appreciate it if you could give pKd for each entry below.
1. UCUCUUUGUACCCUGUCUCUU (ssRNA) [Ic_S1_P4E.1_K4.1_C4.1_H4.1_A4.1_[T5C]_[A6C]_[T7C]_F4.1_[A9G]_T4.1]
2. Ic_S4_P5E.1_K5.1_C5.1_H5.1_A5.1_[T5A]_[A7G]_F5.1_[T8G]_[A10C]_T5.1 (ssRNA) RNA: UUUGACAACUGAUCGUUCUUUCUUGUAAUGGUCUUCUUUCUCGAUCAGUUGUCUUU
3. UCUCUUGCACACUAUACAUCUCUU (ssRNA) [Id_ii_S1_P3E.4_K3.3_C3.2_[C-2G]_[T-1C]_H3.3_A3.1_F3.1_T3.2_[T9C]]
4. UCUCUUUGUAUAUCCCUAUCUCUU (ssRNA) [Ie_S1_P4E.1_K4.1_C4.1_H4.1_A4.1_[+7CCC]_F4.1_T4.1]
5. UCUCUUUGUAAUACUAUCUCUU (ssRNA) [Ib_S1_P5E.1_K5.1_C5.1_H5.1_A5.1_[T5A]_F5.1_[T8C]_T5.1]

Response:
1: 7.49; 2: 5.87; 3: 6.56; 4: 7.50; 5: 7.99
